FYI, the data here is from patent US8163758B2.

- Target Entity: epithelial sodium channel (ENaC) (Canis lupus familiaris, UniProt A0A8I3MKE6+A0A8I3Q679+Q95165)
- Construct: endogenous in cells; host or cells: primary canine bronchial epithelial cells cultured at air-liquid interface
- Sequence (A0A8I3Q679 1-649): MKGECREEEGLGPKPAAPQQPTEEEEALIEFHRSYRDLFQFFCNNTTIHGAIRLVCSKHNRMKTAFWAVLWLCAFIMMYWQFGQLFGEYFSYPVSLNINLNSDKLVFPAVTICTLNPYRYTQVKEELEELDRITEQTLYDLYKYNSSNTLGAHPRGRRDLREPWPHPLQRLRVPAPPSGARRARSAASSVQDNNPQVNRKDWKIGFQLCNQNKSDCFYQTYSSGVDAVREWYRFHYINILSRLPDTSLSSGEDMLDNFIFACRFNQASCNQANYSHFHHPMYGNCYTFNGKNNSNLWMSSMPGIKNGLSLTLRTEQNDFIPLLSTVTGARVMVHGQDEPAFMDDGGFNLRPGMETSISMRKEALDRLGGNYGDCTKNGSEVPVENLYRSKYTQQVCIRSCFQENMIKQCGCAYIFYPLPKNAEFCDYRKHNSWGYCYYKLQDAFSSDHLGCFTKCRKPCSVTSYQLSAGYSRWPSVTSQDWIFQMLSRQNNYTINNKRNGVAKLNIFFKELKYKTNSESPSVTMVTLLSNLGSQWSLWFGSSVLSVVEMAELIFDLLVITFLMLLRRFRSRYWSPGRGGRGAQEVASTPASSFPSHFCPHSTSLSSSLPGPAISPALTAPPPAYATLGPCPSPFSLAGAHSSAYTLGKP
- Sequence (Q95165 1-641): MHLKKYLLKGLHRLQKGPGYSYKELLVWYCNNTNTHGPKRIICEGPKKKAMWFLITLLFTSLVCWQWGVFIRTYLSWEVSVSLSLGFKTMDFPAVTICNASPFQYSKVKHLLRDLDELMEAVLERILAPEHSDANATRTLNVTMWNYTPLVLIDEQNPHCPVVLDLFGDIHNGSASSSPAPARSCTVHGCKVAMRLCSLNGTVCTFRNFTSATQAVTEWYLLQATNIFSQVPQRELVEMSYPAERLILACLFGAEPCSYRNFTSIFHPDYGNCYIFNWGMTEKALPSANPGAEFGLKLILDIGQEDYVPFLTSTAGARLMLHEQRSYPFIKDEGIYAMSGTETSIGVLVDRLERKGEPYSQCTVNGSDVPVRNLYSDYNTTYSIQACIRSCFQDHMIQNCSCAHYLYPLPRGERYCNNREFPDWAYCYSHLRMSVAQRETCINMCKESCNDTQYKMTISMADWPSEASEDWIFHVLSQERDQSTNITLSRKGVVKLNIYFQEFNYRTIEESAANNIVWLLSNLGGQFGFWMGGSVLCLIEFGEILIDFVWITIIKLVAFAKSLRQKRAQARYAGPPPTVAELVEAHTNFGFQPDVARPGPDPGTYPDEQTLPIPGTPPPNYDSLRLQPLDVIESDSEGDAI
- Sequence (A0A8I3MKE6 1-646): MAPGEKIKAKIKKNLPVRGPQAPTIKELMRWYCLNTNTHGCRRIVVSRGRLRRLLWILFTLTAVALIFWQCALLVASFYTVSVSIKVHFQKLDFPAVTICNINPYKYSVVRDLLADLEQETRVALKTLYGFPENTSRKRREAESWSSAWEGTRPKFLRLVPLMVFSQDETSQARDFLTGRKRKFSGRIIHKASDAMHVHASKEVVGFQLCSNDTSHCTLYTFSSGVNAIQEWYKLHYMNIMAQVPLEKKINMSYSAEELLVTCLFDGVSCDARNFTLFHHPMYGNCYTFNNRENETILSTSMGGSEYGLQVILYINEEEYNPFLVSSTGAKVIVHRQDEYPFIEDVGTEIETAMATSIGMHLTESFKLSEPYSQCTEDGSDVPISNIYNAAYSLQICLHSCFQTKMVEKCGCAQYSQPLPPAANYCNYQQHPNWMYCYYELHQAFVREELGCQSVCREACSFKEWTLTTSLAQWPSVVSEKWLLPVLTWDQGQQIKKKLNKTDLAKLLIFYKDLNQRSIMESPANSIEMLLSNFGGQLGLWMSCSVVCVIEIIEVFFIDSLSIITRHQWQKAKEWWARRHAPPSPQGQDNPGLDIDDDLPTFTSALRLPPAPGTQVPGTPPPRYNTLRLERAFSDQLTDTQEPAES
- Experiment: ENaC blocking activity, short circuit current in airway epithelial monolayers in Ussing chambers
- Assay type: cell-based
- Experimental Conditions: canine bronchial epithelia; lumenal addition; propranolol 10 μM applied first
- Excerpt: To assess epithelial sodium channel blocker potency the compounds of the present invention involves the determination of lumenal drug inhibition of airway epithelial sodium currents measured under short circuit current (ISC) using airway epithelial monolayers mounted in Ussing chambers. […] All test drug additions are to the lumenal bath with approximately half-log dose additions (from 1×10^−11 M to 6×10^−5 M), and the cumulative change in ISC (decreases) recorded. […]
Structures can show the parent of a compound that is named as a salt.
So basically: is IC50 under 10 nM? Then yes. Not under? Then no.

Worked examples follow.
>>> category("CS(=O)(=O)Nc1cc([C@@H](O)CN(CCCCc2ccc(CCCCNC(=N)NC(=O)c3nc(Cl)c(N)nc3N)cc2)C[C@H](O)c2ccc(O)c(NS(C)(=O)=O)c2)ccc1O [Compound 42]")
"no"
>>> category("CS(=O)(=O)Nc1cc([C@@H](O)CNCCCCc2ccc(CCCCNC(=N)NC(=O)c3nc(Cl)c(N)nc3N)cc2)ccc1O [Compound 40]")
"yes"
>>> category("N=C(NCCCCc1ccc(CCCCNC[C@H](O)c2ccc(O)c(NC=O)c2)cc1)NC(=O)c1nc(Cl)c(N)nc1N [Compound 12]")
"yes"
>>> category("C[C@H](CCCc1ccc(CCCCNC(=N)NC(=O)c2nc(Cl)c(N)nc2N)cc1)NC[C@H](O)c1ccc(O)c(NC=O)c1 [Compound 30]")
"yes"
>>> category("N=C(NCCCCc1ccc(CCCCNC[C@H](O)c2ccc(O)c(CO)c2)cc1)NC(=O)c1nc(Cl)c(N)nc1N [Compound 63]")
"yes"

Inquiry: Please let me know if N=C(NCCCCc1ccc(CCCCN(C[C@H](O)c2ccc(O)c(NC=O)c2)C[C@H](O)c2ccc(O)c(NC=O)c2)cc1)NC(=O)c1nc(Cl)c(N)nc1N [Compound 14, diacetic acid salt] shows IC50 below 10 nM.
Reply text: no

Inquiry: Please let me know if N=C(NCCCCc1ccc(CCCCN(C[C@H](O)c2ccc(O)c(CO)c2)C[C@H](O)c2ccc(O)c(CO)c2)cc1)NC(=O)c1nc(Cl)c(N)nc1N [Compound 67] shows IC50 below 10 nM.
Reply text: no
